# System name: Glucocorticoid receptor (Mus musculus)
# Sequence (P06537 whole entry): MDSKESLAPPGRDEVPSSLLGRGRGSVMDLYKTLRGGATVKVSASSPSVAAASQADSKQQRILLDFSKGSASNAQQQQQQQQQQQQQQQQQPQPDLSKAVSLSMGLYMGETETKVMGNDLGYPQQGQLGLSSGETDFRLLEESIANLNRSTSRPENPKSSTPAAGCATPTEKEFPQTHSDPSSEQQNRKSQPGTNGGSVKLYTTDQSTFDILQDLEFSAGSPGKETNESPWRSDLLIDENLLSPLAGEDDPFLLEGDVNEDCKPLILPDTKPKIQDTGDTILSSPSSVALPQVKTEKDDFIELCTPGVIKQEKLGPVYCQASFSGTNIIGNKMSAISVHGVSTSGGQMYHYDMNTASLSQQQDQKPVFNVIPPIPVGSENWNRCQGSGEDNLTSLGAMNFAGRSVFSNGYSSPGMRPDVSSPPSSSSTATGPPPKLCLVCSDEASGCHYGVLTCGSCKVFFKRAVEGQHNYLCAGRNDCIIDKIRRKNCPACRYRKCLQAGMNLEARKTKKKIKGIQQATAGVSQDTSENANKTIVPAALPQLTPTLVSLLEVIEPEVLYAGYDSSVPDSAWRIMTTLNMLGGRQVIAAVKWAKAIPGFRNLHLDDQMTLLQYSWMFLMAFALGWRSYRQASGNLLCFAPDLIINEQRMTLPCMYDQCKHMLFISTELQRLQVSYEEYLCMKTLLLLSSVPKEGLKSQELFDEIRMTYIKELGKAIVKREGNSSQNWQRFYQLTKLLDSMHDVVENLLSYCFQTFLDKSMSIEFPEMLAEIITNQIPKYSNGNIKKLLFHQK
# Method summary: Inhibition of mouse GR
Experimental readout: EC50

Under Glucocorticoid receptor (Mus musculus): EC50 value of `CC(=O)N1C[C@H](C(=O)Nc2ccc(C)cc2C)[C@@H](c2nnc([C@H]3C[C@@H](CC(C)C)C3)n2C2CC2)C1` ?
> 20 µM

###

# System name: Nuclear receptor ROR-gamma (Mus musculus, UniProt P51450)
# Sequence (P51450 whole entry, the tested form may be a part): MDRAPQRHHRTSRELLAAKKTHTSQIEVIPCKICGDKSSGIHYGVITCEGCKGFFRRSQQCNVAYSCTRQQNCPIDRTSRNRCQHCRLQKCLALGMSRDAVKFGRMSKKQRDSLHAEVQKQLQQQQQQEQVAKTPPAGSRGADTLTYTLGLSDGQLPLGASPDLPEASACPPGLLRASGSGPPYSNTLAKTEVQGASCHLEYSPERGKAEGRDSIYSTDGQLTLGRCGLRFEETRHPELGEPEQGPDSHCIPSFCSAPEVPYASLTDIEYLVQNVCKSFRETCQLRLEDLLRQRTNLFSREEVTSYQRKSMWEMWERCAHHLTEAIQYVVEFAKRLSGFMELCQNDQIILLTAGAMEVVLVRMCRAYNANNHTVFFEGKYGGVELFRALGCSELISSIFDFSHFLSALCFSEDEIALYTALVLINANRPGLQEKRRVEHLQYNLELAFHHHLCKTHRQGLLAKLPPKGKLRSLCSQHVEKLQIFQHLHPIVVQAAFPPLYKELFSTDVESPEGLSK
# Method summary: Inhibition of mouse RORgamma ligand binding domain (Isoleucine 251 to Lysine 516) expressed in CHOK1 cells incubated for 2 days by Gal4 luciferase reporter gene assay
# Format: cell-based, CHO-K1
Experimental readout: EC50 (nM)
Provide the reading as a plain figure in nM.

Find the recorded EC50 belonging to `Cc1ccc(NC(=O)CCc2nnc(CCCC(C)(C)C)n2C2CC2)c(C)c1` and report it.
1300

// EC50 lookup, key: `Cc1ccc(NC(=O)CCc2nnc(CCC3CCCCC3)n2C2CC2)c(C)c1`
450

Endpoint output: EC50 of `Cc1ccc(NC(=O)CCc2nnc(CCCC(C)C)n2C2CC2)c(C)c1` . Value?
610
